Field: composite z-score. Provide a value for each of the compounds that follow.
Experiment: small-molecule microarray binders of probe aNog, primary screen, biochemical, biotinylated probe, 635/667 nm fluorescence (AID 1115);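 also: probe is biotinylated aNog protein used at 0.15 µg/mL for 1 h at 4 C; z-score combines 667 nm fluorescence of each spot with its signal to noise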
Conditions: higher = more signal
Answers are plain numbers.

compound	composite z-score
COCCOC(=O)N1C(=O)[C@@]2(c3cc(C#CCC(C(=O)OC)C(=O)OC)ccc31)[C@H](C(=O)N1CCN(c3ncccn3)CC1)[C@H]1C(=O)O[C@H](c3ccccc3)[C@H](c3ccccc3)N1[C@@H]2c1ccc(OCCO)cc1	-0.213
Cc1ccc(S[C@]2(C(=O)O)CC(=O)N(C3Cc4ccccc4C3)[C@@H]2c2ccc(CO)cc2I)cc1	0.22

I'm hoping you can list composite z-score for every compound here, please.
1. C=CCN1C(=O)[C@]2(O[C@H](CCO)[C@@H]([Si](C)(C)c3ccc(OC)cc3)[C@@H]2C)c2cc(NC(=O)[C@H](C)O)ccc21
2. O=C(CS)NCCCCCCNC(=O)[C@@H]1C[C@@H]2C(=O)N3CCC[C@H]3C(=O)N2[C@@H]1c1ccc(O)cc1
3. COc1ccc([Si](C)(C)[C@H]2[C@H](CC(=O)N(CCO)Cc3ccccc3)O[C@@]3(C(=O)N(Cc4cccc(N5CCC5=O)c4)c4ccccc43)[C@@H]2C)cc1
4. CC(c1ccccc1)C(O)C1C=CC2C(=O)NC(=O)C2N1Nc1ccccn1 (configuration not stated)
5. CCCNC(=O)[C@@H]1c2ccccc2C(=O)N(Cc2ccccc2)[C@H]1c1ccc(CO)cc1
6. COc1ccc(CCNC(=O)[C@@]2(Sc3ccc(C)cc3)CC(=O)N(Cc3ccccc3Cl)[C@@H]2c2ccc(CO)cc2I)cc1

A.
1: -0.204; 2: -0.264; 3: -0.0311; 4: 0.496; 5: -0.216; 6: 0.384

I'm hoping you can list composite z-score for every compound here, please.
1. O=C1c2ccccc2[C@@]2(Cc3ccccc3N(Cc3ccccc3)C2=O)[C@H](c2ccc(CO)cc2)N1C1CCCCC1
2. NC(=O)NCC#Cc1ccc2c(c1)[C@]1(C(=O)N2)[C@H](C(=O)N2CCCCCCC2)[C@H]2C(=O)O[C@H](c3ccccc3)[C@H](c3ccccc3)N2[C@@H]1c1ccc(OCCO)cc1
3. C=CCOC(=O)[C@H]1[C@@H]2C(=O)O[C@@H](c3ccccc3)[C@@H](c3ccccc3)N2[C@@H](c2ccc(OCCOC(=O)[C@@H]3C[C@@H]4C(=O)NCC(=O)N4[C@@H]3c3ccc(O)cc3)cc2)[C@]12C(=O)Nc1ccccc12
4. [N-]=[N+]=Nc1ccccc1C[C@]1(C(=O)NCCN2CCOCC2)N=C(c2ccc(OCCCO)cc2)O[C@H]1c1ccccc1

A.
1: -0.444; 2: 2.19; 3: -0.0216; 4: -0.465

I'm hoping you can list composite z-score for every compound here, please.
1. C=C(COC)/C(=C/C[C@H](OC(=O)c1ccncc1)c1cccc(OCCO)c1)c1cc(C(=O)OC)ccc1OC
2. C=CCNC(=O)[C@@H]1[C@H]2C(=O)O[C@H](c3ccccc3)[C@H](c3ccccc3)N2[C@H](c2ccc(OCCO)cc2)[C@@]12C(=O)Nc1ccccc12

A.
1: -0.104; 2: -0.543

The measured values listed here are drawn from PubChem BioAssay.
